- procedure.details: Part 1 single dose MR formulation pharmacokinetic study in healthy CYP2D6 EM male subjects
- Format: in vivo, human
- protocol.conditions: male, human, plasma, oral, 32 mg, Period 1, 32 mg Slow Release, Fasted, plasma analyte; read-out: AUClast, Median
Counter-ions that a name gives are not always drawn.
parameter: AUC(0-t) (ng·h/mL)
The reply should be a number in ng·h/mL, with the unit left off.

compound O=C(CN1CCC(CN2Cc3ccccc3C2=O)CC1)c1ccc(F)cc1 [Compound (I), monohydrochloride dihydrate] , AUC(0-t) observed: 220

* * *

- procedure.details: in vivo
- Parameters: species or system monkeys
- protocol.conditions: monkey, po
Structures can show the parent of a compound that is named as a salt.
parameter: bioavailability

compound O=C(CN1CCC(CN2Cc3ccccc3C2=O)CC1)c1ccc(F)cc1 [Compound (I), monohydrochloride dihydrate] , bioavailability observed: ≥ 90%

* * *

- System: QT/QTc interval
- procedure.details: Analysis of relationship between QT/QTc and plasma concentrations
- Type: in vivo, human
- protocol.conditions: human plasma; read-out: Cmax that should not be exceeded to avoid QT prolongation
Where a name gives a salt, the structure may show the parent alone.
parameter: Cmax

compound O=C(CN1CCC(CN2Cc3ccccc3C2=O)CC1)c1ccc(F)cc1 [Compound (I), monohydrochloride dihydrate] , Cmax observed: ≤ 80 ng/mL

* * *

- procedure.details: Part 1 single dose MR formulation pharmacokinetic study in healthy CYP2D6 EM male subjects
- Format: in vivo, human
- protocol.conditions: male, human, plasma, oral, 32 mg, Period 1, 32 mg Slow Release, Fasted, plasma analyte; read-out: AUClast, Mean
Where a name gives a salt, the structure may show the parent alone.
parameter: AUC(0-t) (ng·h/mL)
The reply should be a number in ng·h/mL, with the unit left off.

molecule O=C(CN1CCC(CN2Cc3ccccc3C2=O)CC1)c1ccc(F)cc1 [Compound (I), monohydrochloride dihydrate] , AUC(0-t) observed: 212

* * *

- system.name: IKr current (Homo sapiens)
- Sequence (Q12809 whole entry): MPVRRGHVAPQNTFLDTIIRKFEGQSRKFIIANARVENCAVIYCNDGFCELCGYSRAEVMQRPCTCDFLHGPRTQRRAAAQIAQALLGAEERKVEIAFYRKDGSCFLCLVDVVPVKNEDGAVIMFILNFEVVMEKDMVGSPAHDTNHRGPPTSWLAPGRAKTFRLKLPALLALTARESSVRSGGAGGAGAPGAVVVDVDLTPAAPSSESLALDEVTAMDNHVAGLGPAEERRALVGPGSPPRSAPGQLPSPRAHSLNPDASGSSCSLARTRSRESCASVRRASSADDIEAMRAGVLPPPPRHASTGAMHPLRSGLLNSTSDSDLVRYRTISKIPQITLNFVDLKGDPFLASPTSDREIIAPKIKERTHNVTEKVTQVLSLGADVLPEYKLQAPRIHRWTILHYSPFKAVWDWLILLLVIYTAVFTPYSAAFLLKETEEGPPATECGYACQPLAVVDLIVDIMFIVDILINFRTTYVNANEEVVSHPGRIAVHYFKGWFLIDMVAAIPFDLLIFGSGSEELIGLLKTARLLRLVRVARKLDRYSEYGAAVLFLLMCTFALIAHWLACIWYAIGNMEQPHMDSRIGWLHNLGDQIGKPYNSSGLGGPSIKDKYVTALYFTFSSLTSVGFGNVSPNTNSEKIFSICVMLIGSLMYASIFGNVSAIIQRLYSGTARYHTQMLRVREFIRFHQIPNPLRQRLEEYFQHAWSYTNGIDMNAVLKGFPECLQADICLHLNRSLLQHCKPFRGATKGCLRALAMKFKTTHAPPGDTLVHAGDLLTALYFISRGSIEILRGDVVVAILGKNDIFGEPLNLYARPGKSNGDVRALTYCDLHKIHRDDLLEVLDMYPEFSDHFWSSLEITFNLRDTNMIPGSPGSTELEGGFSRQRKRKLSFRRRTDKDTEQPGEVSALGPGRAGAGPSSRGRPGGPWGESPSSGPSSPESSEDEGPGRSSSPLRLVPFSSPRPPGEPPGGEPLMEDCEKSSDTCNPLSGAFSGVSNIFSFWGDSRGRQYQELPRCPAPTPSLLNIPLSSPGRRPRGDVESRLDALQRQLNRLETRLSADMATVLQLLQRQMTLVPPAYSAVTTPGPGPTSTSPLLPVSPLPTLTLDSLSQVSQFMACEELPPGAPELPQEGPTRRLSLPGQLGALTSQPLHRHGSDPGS
- procedure.details: In vitro electrophysiology, cultured cells expressing cloned cardiac ion channels
Structures can show the parent of a compound that is named as a salt.
parameter: pIC50
Schema: pIC50 number; meaning minus log10 of the concentration expressed in molar units.

molecule	recorded.result
O=C(CN1CCC(CN2Cc3ccccc3C2=O)CC1)c1ccc(F)cc1 [Compound (I), monohydrochloride dihydrate]	6.49

# evaluate next
molecule O=C1c2ccccc2CN1CC1CCN(CC(O)c2ccc(F)cc2)CC1 (centres unmarked) , pIC50 observed: 6.74

* * *

- system.name: UniProt:P28223
- Sequence (P28223 whole entry): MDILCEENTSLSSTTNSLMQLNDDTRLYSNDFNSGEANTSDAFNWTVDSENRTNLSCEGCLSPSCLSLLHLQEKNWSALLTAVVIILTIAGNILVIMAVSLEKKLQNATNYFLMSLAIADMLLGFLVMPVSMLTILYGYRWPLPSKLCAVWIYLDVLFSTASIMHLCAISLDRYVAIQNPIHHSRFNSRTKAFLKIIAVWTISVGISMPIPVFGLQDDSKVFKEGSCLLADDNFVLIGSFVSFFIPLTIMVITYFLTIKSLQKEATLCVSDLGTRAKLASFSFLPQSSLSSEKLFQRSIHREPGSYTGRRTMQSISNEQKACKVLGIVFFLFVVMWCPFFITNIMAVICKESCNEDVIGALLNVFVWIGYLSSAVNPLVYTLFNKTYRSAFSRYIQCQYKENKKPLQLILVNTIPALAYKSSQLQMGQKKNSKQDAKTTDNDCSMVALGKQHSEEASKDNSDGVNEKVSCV
Counter-ions that a name gives are not always drawn.
parameter: pKi
Schema: pKi number; meaning minus log10 of the concentration expressed in molar units.

Hey, UniProt:P28223 data for O=C(CN1CCC(CN2Cc3ccccc3C2=O)CC1)c1ccc(F)cc1 [Compound (I), monohydrochloride dihydrate] : pKi came out at 8.12

* * *

- procedure.details: in vivo
- Parameters: species or system rats
- protocol.conditions: rat, po
Structures can show the parent of a compound that is named as a salt.
parameter: half-life

compound O=C(CN1CCC(CN2Cc3ccccc3C2=O)CC1)c1ccc(F)cc1 [Compound (I), monohydrochloride dihydrate] , half-life observed: 1.68 to 2.06 h

* * *

- procedure.details: Part 1 single dose MR formulation pharmacokinetic study in healthy CYP2D6 EM male subjects
- Format: in vivo, human
- protocol.conditions: male, human, plasma, oral, 32 mg, Period 1, 32 mg Slow Release, Fasted, plasma analyte; read-out: Cmax, Mean
Structures can show the parent of a compound that is named as a salt.
parameter: Cmax (ng/mL)
The reply should be a number in ng/mL, with the unit left off.

compound O=C(CN1CCC(CN2Cc3ccccc3C2=O)CC1)c1ccc(F)cc1 [Compound (I), monohydrochloride dihydrate] , Cmax observed: 22.5
